// provenance: patent US7078382

Tested system: T1, KDR (1-3) (UniProt P35968 20-327, limits assumed)
T1 construct: domain: KDR (1-3); Soluble KDR (1-3) at 1 ug/ml, captured on the plate by anti-KDR monoclonal antibody MAKD5; also called KDR (1-3) monomer
T1 sequence (P35968 20-327 limits assumed): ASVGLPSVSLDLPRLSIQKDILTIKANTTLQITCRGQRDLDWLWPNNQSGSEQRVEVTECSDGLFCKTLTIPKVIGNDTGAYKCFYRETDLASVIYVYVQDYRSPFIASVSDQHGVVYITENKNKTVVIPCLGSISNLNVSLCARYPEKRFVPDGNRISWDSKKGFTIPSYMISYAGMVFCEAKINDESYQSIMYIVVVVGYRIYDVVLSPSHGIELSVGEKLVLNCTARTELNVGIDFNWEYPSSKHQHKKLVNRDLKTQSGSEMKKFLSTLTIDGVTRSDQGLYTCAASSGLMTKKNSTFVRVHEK
Procedure details: competition ELISA, biotinylated native VEGF (8-109) as tracer, KDR (1-3) captured by mAb MAKD5
Parameter measured: Relative Binding Affinity

[[record]]
binder = "LK-VRB-13s (ligand) APMAEGGGQNHHEVVKFEDVYQRSSCHPIETLVDIFQEYPDEIEYIFKPSCVPLMRCGGCCNSEMRECVPTEESNITMQIMRIKPHQGQHIGEMSFLQHNKCECRPKKD"
parameter_measured = "Relative Binding Affinity"
result = "14 fold of native VEGF (8-109)"

[[record]]
binder = "LK-VRB-11s (ligand) APMAEGGGQNHHEVVKFEDVLQRSYCHPIETLVDIFQEYPDEIEYIFKPSCVPLMRCGGCCNSEMRECVPTEESNITMQIMRIKPHQGQHIGEMSFLQHNKCECRPKKD"
parameter_measured = "Relative Binding Affinity"
result = "2 fold of native VEGF (8-109)"

[[record]]
binder = "LK-VRB-18s (ligand) APMAEGGGQNHHEVVKFEDVLQRSSCHPIETLVDIFQEYPDEIEYIFKPSCVPLMRCGGCCNSEMRECVPTEESNITMQIMRIKPHQGQHIGEMSFLQHNKCECRPKKD"
parameter_measured = "Relative Binding Affinity"
result = "130 fold of native VEGF (8-109)"


Fill in Relative Binding Affinity for record LK-VRB-7s* (ligand) APMAEGGGQNHHEVVKFEDVYQRSYCHPIETLVDIFQEYPDEIEYIFKPSCVPLMRCGGCCNSEMRECVPTEESNITMQIMRIKPHQGQHIGEMSFLQHNKCECRPKKD 1 fold of native VEGF (8-109)
